Task for the reader: assign each of the following compounds its reported melting point.

The value of melting point measured for the compound O=C(O)c1cc(-c2ccc(C(F)(F)F)cc2)cnc1O turned out to be 305 to 315 °C

The value of melting point measured for the compound CCCCN1C(=O)c2cncnc2N(C(=O)CN2CCOCC2)c2ccccc21 turned out to be 127 to 128 °C

The value of melting point measured for the compound CC(=O)NC12CCC(CC1)C2(C)C turned out to be 133 to 134 °C

The value of melting point measured for the compound COc1ccc(Nc2c([N+](=O)[O-])ccc(Cl)c2C(=O)O)cc1Cl turned out to be 222 to 228 °C

The value of melting point measured for the compound COc1cc(C=CC(=O)C(Cc2ccccc2)C(=O)C=Cc2ccc(O)c(OC)c2)ccc1O (stereo not given) turned out to be 139 to 141 °C

The value of melting point measured for the compound CNC(=O)N1CCC(Oc2c(F)c(F)c(F)c(F)c2F)CC1 turned out to be 107 to 110 °C

The value of melting point measured for the compound CCCCCCCCOc1cc(OC)ccc1C=O turned out to be 37 to 39 °C

The value of melting point measured for the compound CN(C)C(=S)SC(C[N+](=O)[O-])c1ccc(Cl)s1 (stereo not given) turned out to be 76 to 77 °C

The value of melting point measured for the compound CC1(C)CC(c2ccc3ccccc3n2)c2cc(C#N)ccc2O1 (stereo not given) turned out to be 174 to 176 °C

The value of melting point measured for the compound NCCc1cccc(N2C(=O)N(c3ccccc3Br)Cc3cnc(Nc4ccccc4)nc32)c1 turned out to be 130 °C

###

OBSERVED PROPERTY: melting point

The value of melting point measured for the compound Clc1ncnc(Cl)c1I turned out to be 135 to 136 °C

The value of melting point measured for the compound Cc1c(C(F)(F)F)cnn(-c2ccc(Cl)c(C=C(Cl)C(=O)O)c2)c1=O turned out to be 168 °C

The value of melting point measured for the compound Cc1cc(-c2cc(C(F)F)n3ncc(-c4ccncc4)c3n2)ccc1C(F)(F)F turned out to be 236 °C

The value of melting point measured for the compound NCCOc1cccc2c1c1cccc(F)c1n2Cc1ccccc1 turned out to be 122 to 123 °C

The value of melting point measured for the compound Nc1c(N(CC(=O)O)Cc2ccccc2)c(=O)c1=O turned out to be 177 to 179 °C

The value of melting point measured for the compound COc1ccc(-c2cc(=Nc3ccc(OCC(O)CNC(C)C)cc3)n(C)c(=O)n2C)cc1OC (stereo unspecified) turned out to be 129 to 132 °C

The value of melting point measured for the compound O=C1c2ccc(Nc3ccc(F)cc3F)cc2CCc2cc(OCCCO)ccc21 turned out to be 154 °C

The value of melting point measured for the compound CCCCCCCC(=O)NCCCCCCO turned out to be 77 to 78 °C

The value of melting point measured for the compound Cc1nc2c(-c3cccc(N4CCN(CCO)CC4)c3)cnn2c(N)c1-c1ccc(F)cc1 turned out to be 209 to 212 °C

The value of melting point measured for the compound N#Cc1cnc2ccsc2c1Oc1ccc(Cl)cc1Cl turned out to be 158 to 160 °C

The value of melting point measured for the compound CC(=O)N1CCN(CC#CCn2cncc2C)C1=O turned out to be 93 to 95 °C
